assayOverview: label from the status in PepcDB records
valueKind: protein production

Field: example entries. Status: answers known.
# sequenceCode, valueKind, recordedResult
records = [
    ("SDPDADRIGVAVRNNEGRMVLINGNEICSLLIYYSIMRRKELGDLHPDDYIVKTIVTTELIRDIAKKEHVSMFDCYTGFKWIAAVIRENEGRRRYIGGGEESYGFLWEDFIRDKSSVSACALFCEMAAWALDRGMSVYRLIRSIYLEYGLYYE", "protein production", "failed"),
    ("MEYGHHARPDSKRPLDEGSPAAAGLTSKKANEALTRNRELTTVLVKNLPKSYNQNKVYKYFKHCGPIIHVDVADSLKKNFRFARIEFARYDGALAAITKTHKVVGQNEIIVSHLTECTLWMTNFPPSYTQRNIRDLLQDINVVALSIRLPSLRFNTSRRFAYIDVTSKEDARYCVEKLNGLKIEGYTLVTKVSNPLEKSKRTDSATLEGREIMIRNLSTELLDENLLRESFEGFGSIEK", "protein production", "not failed"),
    ("MRFRDRRHAGALLAEALAPLGLEAPVVLGLPRGGVVVADEVARRLGGELDVVLVRKVGAPGNPEFALGAVGEGGELVLMPYALRYADQSYLEREAARQRDVLRKRAERYRRVRPKAARKGRDVVLVDDGVATGASMEAALSVVFQEGPRRVVVAVPVASPEAVERLKARAEVVALSVPQDFAAVGAYYLDFGEVTDEDVEAILLEWAG", "protein production", "not failed"),
    ("MTHVRIVMVNTTLPANIGSALRAMKTMGLSQLVLVAPKTYPHPDIDALAAGAQDLVEKIKIVDTLEQAIQDCHIVFGTSARSRTIPWPLLDARPAAELSMDAVITRQQEIAIVFGREDRGLTNEELALANYHLTIPVNTDYGVLNVAQAIQVICYEMRMATLAQVQNDQASSDSQKMQVTEKIEMDWDEPLVNHQQMEEFYPHLEKMLVDIEFLDPQNPRLLPLRLRRLFGRAQLDRMEYHLLRGIFSRVQALSHGKWKKTALDKEEQSDV", "protein production", "failed"),
    ("ANKKIDHREEAIELLKQDAKRILQLIKVQMDNLTLPQCPAYEEVLDTQMYGLSREINFATRLGLIEPEEGKKLISTLEKELSALHELSMSK", "protein production", "failed"),
    ("MDVRQRLISSMVISLGLTIISEGIVLIGIASLLHISLFFIFPALVIFWLFQWIISPYVVGRGGYEVSPNDPQYGWLYNLVRRIAEESKIKPPRVFVIDAPYPNAFAYGNRLGGMRVGITLPLLNILDVDELTAVIAHEVGHIKHRDVEIGMTIGLIPTVLGYISTLLMNFGYLALFLAADEIELLFAIAALAIGFVIFVVTFILQIFVLWFNRLRESYADYNSFLVLGEGSKALATALAKIEIYMQNIRIDPFTGIIVTAPPVKVEEKDPHLLVEQWLRTKVSAFKDILSTHPYPARRAQMIYRLIYGSNI", "protein production", "failed"),
    ("MSASVKESLQLQLLEMEMLFSMFPNQGEVKLEDVNALTNIKRYLEGTREALPPKIEFVITLQIEEPKVKIDLQVTMPHSYPYLALQLFGRSSELDRHQQLLLNKGLTSYIGTFDPGELCVCAAIQWLQDNSASYFLNRKLV", "protein production", "not failed"),
    ("MTAGGTMTLKITFLGSGSSFAIGPENYQSNVLLELENDTLLIDAGTDIKYSLRDQGLSYKDIKNIYISHLHYDHCGGLEWFALITYFDPNLSHKPCLIASDKIINELWDKSLSGGLSTLPHERANLSAFFDVKAVKQYEGFVWRSIKFKLVQTVHYYSEYELMPSFGLIFSYNKSRILFTSDTQSCPVQLISFYEESDIIFHDCETTESKSGVHAHYSELVKLPSHLKKKMWLYHYNPGKLPNAKKDGFLGFVAKGQSFVF", "protein production", "failed"),
]

[ask] Check the records and state protein production for `LNHVAEELCAATNESEVFSIITRSASHIISAQRISYCVPNYKDKCFEIRSVFSENEVMKSATVDMENSALQFVLQSGSPQFFENLAVTNFTDHLILSKNGLCSGWSVPVRVKGEIVGLLNAASNVKINERAQQLGVIKMLSGIMGVTLSRVNLQEQLEHQ`
[reply] failed

[ask] Check the records and state protein production for `MQRFALIGAGFIGGVHGDNLAAHPDVDLALVFDIDLARATDLAKRHGSRATTDLAEVFDPTAIDAVFIASSSNTHAEHLRAAATAGIPALCEKPIDLDLAHAVDIVRFAETRSLRAMVDFNRRFDRDYAELQRVVASGEIGSVELIQMTSRGPAMPPLEYIAVSGGQMRDQTVHFFDLARWISGLDPESVFATGSTLAEPRLAEYGDVDTSAVTLRLPGGALVQIDCTRRIGYGYDERIEVLGSTGMVEARRQRAGSVSRYSAGRVVDDGLHAGWFERIRGSYRTALDHFVDALENGAAIGPTLAEGLKAQAIAEAATRSLTSGRMEPIEYPA`
[reply] failed

###

assayOverview: label from the status in PepcDB records
valueKind: protein production

Field: example entries. Status: answers known.
# sequenceCode, valueKind, recordedResult
data = [
    ("PDLYNHAIVIGYGRVGSMLAQLLQSRHVPLLVIDDNSEHVLKAHAAGIPAIRGSAAADLVLAEAHPERAKIAVLAIPQPLEAGEILAKLRALNPELTLVARAQNDAEVKHLLGHGADATVVAEHEMAHSLAEMVLSSTNHPNSTRLQPAIA", "protein production", "failed"),
    ("SPKMDVHETDHEVILECDIPGLESKEDLQIDVEPRSVRIEGRIKRSKEVHDERFYRREREIGHFRRVVPLPAEVAEDDIRAAYRNGVLEVRMRKRLDDRRRTIDVEFH", "protein production", "failed"),
    ("EVKEEDAFYSKKCKLFYKKDNEFKEKGIGTLHLKPTANQKTQLLVRADTNLGNILLNVLIPPNMPCTRTGKNNVLIVCVPNPPIDEKNATMPVTMLIRVKTSEDADELHKILLEKKDA", "protein production", "not failed"),
    ("MTSGSRWDGIIPHPGILAFAMALYLLGFVLDASGRPLAYGFLTGDMVVHFFTFPGLREQFIDYLLATAFWIFISNITQVTVFIFSLATFYPVLKIFVLAGALLHNLLVGWGVRGLLIYAGTLHLHLEVTGCLLSLQAALVFVRSLLGTIQHRSRGPLVTALRENLAYLIPLIILLFAIAAILEVFWSTWWVYNLTHGPVSWRYFYTHVFSVEL", "protein production", "failed"),
    ("MLDCIVVGAGPAGGSAAYHLARRDRQVLLLEQAQLPRQKACAGGVSPQVARWFDCDLRSVVDHGVDRLRFTWKLGDPVEAELPSEEPFWMVRRDRFDHFLVEQAANLGARIEDGAAVTAVSAEGDGWLVTVGDRAYRSRTLIAADGARGPLAQWLGFPSQKRRYAQACELDVPLPARPDSTAHFEFGLVRNGYIWVFPKSDGYSIGIGTFRGNDATDFRGLLETYLAGFGVSADLDRIVPHPLCVWDGSQPLHRGSALLVGEAASLTDPFTAEGIRPALLSGMRAAEAIDRAIAGDRNALAGYSRTIQQEWGDSMAWAKRISSVFYRVPNLGYQIGIKRPTAPQRMAQILVGELDYSDIATRVIRRLTTGFLPGMR", "protein production", "failed"),
]

[ask] Check the records and state protein production for `SGAAAAEADRTLFVGNLETKVTEELLFELFHQAGPVIKVKIPKDKDGKPKQFAFVNFKHEVSVPYAMNLLNGIRLYGRPIKIQFRSGSSHAPQDVSLSYPQHHVGNSSPTSTSPSRYERTMDNMTSSAQIIQRSFSSPENFQRQAVMNSALRQMSYGGKFGSSPLDQSGFSPSVQSHSHSFNQSSSSQWRQGTPSSQRKVRMNSYPYLADRHYSREQRYTDHGSDHHYRGKRDDFFYEDRNHDDWSHDYDNRRDSSRDGKWRSSRH`
[reply] not failed

[ask] Check the records and state protein production for `MEVISSFYLFLEILGTVAFAISGTVVGINHKLDIFGILVMSVITAVGGGIFRDLLLGATPPTALKSPFFIVISIIASIVAMLVALIIKSRREALSIFKAARFYNNLLLVSDAIGLGIFTVLGIDAGIAHGYSQNIFFIVFLGVLTGVGGGMIRDVIANQVPMIFRENIYALPCIIGGILYVYLQSVISHNLALFISVIFIVLIRIISEQRKLNLPRIEY`
[reply] failed

###

assayOverview: label from the status in PepcDB records
valueKind: protein production

# sequenceCode, valueKind, recordedResult
data = [
    ("MASIVMLLRALMSCRLTPKDEPETSDSSSSAAKLYRNIVGDENVTRKRISVVDTSHLGDNHEFIIETTCGSNDMDEGFYWIIVRNHLM", "protein production", "failed"),
    ("RAVAGWGARPSAAPARRRARSLGVPYIALEDGFLRSFGTGRHFPPLSLVVDRLGIYYDATRESELECLLASSRTLLDGIEDAVPEAMELVRERRLSKYNQGCFLATGVPADGRRRVLVVDQTEGDMSVTLGCAEAATFEAMLAAARAESPGALICVKTHPEVAAGDKSGYLSRVTDDADTVALRHDMNPLALLEQMDRVYVVSSQMGFEALMLDKPVTCFGMPWYAGWGVTDDRQRCERRGRARSVEELFAGAYFHYTRYLDPVLH", "protein production", "failed"),
    ("DKMDGAPSRVLHIRKLPGEVTETEVIALGLPFGKVTNILMLKGKNQAFLELATEEAAITMVNYYSAVTPHLRNQPIYIQYSNHKELKT", "protein production", "not failed"),
    ("HSAIVILDSRGNIQRFNRLCEDYTGLKEHDVIGQSVFKLFMSRREAAASRRNNRVFFRSGNAYEVELWIPTRKGQRLFLFRNKFVHSGSGKNEIFLICSGTD", "protein production", "failed"),
]

Turning now to a further record.
[ask] Check the records and state protein production for `MGSSHHHHHHSSGRENLYFQGMNIGRLRDRITIQTLKQTRDITGEILETWEDGHTLWASVNMVSSKEAISSGAELAIGTVRIWIRYRKDINATSRIKVSTGPLAGRVLNIIGQPLPDAARTRLEILCREGAEK`
[reply] not failed
